- System: CAKI-1 renal
- Experiment Description: NCI-60 one-dose screen, 48 h
- Measurement Setup: 10 µM unless noted
This is part of a sample that, as a whole, favours compounds with a hit. Of some 83,000 tested, about 20% had one in any assay. The source made the active and inactive calls. Rule for the calls: active = growth percent below 10; inactive = the rest.
Respond with a class label; see y for active, n for inactive

Consider the following illustrative entries.
COC(=O)c1ccc(Cn2cnc3c(N)ncnc32)cc1 ... n
Brc1ccc(-c2csc(Nc3ccccn3)n2)cc1 ... n
NC(=O)c1cc(I)ccc1NC(=O)/C=C/c1ccccc1Cl ... n
COc1cc(-c2nc3ccccc3[nH]2)ccc1OCc1nnc(-c2ccc(CC(C)C)cc2)o1 ... n
CCCOc1ccc2nc(NC(=O)OC)[nH]c2c1 ... n
CCN(CC)c1ccc(/C=N\NC(=O)/C=C/C=C/c2ccc3c(c2)OCO3)c(O)c1 ... n

Could you kindly confirm the outcome this assay logged for C=C1C(=O)O[C@H]2[C@H]1CC/C(COC(=O)NCc1ccc(OC)c(OC)c1)=C\CC[C@@]1(C)O[C@@H]21 ?
n

Could you kindly confirm the outcome this assay logged for O=C1Nc2cc(-c3ccc(O)cc3)ccc2/C1=C/c1ccc[nH]1 ?
y

Could you kindly confirm the outcome this assay logged for Nc1n[nH]c2cc(F)c([C@@H]3Nc4ccc5[nH]ncc5c4[C@H]4C5CCC(C5)[C@@H]34)cc12 (stereo not given in full) ?
y

Could you kindly confirm the outcome this assay logged for Cc1cc(C)nc(SC2=C(Nc3cc(Cl)ccc3O)C(=O)N(Cc3ccccc3)C2=O)n1 ?
n
